Where these numbers come from: patent US20170089928A1

- Measured on: T1, Heat-denatured ovoalbumin (OA) (UniProt P01012 2-386)
- T1 construct: 1.0 w/v % OA, pH adjusted to 5 to 7 with sodium hydroxide, autoclaved at 115 C for 15 min; also called Heat-denatured OA; denatured OA
- T1 sequence (looked up): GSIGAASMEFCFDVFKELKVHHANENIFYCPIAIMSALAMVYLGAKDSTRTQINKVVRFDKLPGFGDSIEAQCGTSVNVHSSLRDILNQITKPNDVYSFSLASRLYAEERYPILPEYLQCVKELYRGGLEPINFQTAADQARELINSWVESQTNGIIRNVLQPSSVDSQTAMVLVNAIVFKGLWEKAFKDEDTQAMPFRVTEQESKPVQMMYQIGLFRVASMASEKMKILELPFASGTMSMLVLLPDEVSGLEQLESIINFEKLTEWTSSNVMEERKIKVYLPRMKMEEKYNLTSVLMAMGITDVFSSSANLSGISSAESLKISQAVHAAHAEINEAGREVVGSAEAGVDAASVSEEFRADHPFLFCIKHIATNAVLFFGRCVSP
- Test details: turbidity (OD550), Hill plot analysis
Property: pKd
Units for pKd: none; it is -log10 of a concentration expressed in mol/L.

The reported value for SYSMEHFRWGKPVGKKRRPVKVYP (also called basic peptide of interest) [partial ACTH peptide consisting of the amino acids of positions 1 to 24 of ACTH] in terms of pKd is 4.17
